Reference source for all entries: patent EP0835871B1

Test system: female Sprague Dawley rats
TEST SUMMARY: Uterine wet weight in the post-menopausal (ovariectomized rat) model, 4 days of oral dosing
Assay type: in vivo
STATED CONDITIONS: 1 mg/kg PO; % increase versus the ovariectomized controls; * p<0.05
RECORDED ENDPOINT: Uterine Wt. (% Inc.)

**Query** Which Uterine Wt. (% Inc.) value is on record for "C#Cc1ccc2c(C(=O)c3ccc(OCCN4CCCCC4)cc3)c(-c3ccc(O)cc3)sc2c1" ?
**Result** 27.8%

**Query** "CC(C)COC(=O)c1ccc2c(C(=O)c3ccc(OCCN4CCCCC4)cc3)c(-c3ccc(O)cc3)sc2c1" , same question.
**Result** 21.7%

* * *

Test system: female Sprague Dawley rats
TEST SUMMARY: Uterine wet weight in the post-menopausal (ovariectomized rat) model, 4 days of oral dosing
Type: in vivo
STATED CONDITIONS: 10 mg/kg PO; % increase versus the ovariectomized controls; * p<0.05
RECORDED ENDPOINT: Uterine Wt. (% Inc.)

The examples below pair each entry with its known result.
>  <MOLECULE>
Cl.O=C(O)c1ccc2c(C(=O)c3ccc(OCCN4CCCCC4)cc3)c(-c3ccc(O)cc3)sc2c1

>  <RECORDED ENDPOINT>
Uterine Wt. (% Inc.)

>  <REPORTED VALUE>
29.6* %

$$$$
>  <MOLECULE>
CCCCOC(=O)c1ccc2c(C(=O)c3ccc(OCCN4CCCCC4)cc3)c(-c3ccc(O)cc3)sc2c1

>  <RECORDED ENDPOINT>
Uterine Wt. (% Inc.)

>  <REPORTED VALUE>
52.5* %

$$$$
>  <MOLECULE>
COC(=O)c1ccc2c(C(=O)c3ccc(OCCN4CCCCC4)cc3)c(-c3ccc(O)cc3)sc2c1.Cl

>  <RECORDED ENDPOINT>
Uterine Wt. (% Inc.)

>  <REPORTED VALUE>
45.2* %

$$$$
>  <MOLECULE>
CC(=O)c1ccc2c(C(=O)c3ccc(OCCN4CCCCC4)cc3)c(-c3ccc(O)cc3)sc2c1

>  <RECORDED ENDPOINT>
Uterine Wt. (% Inc.)

>  <REPORTED VALUE>
69.4* %

$$$$
>  <MOLECULE>
CC(C)COC(=O)c1ccc2c(C(=O)c3ccc(OCCN4CCCCC4)cc3)c(-c3ccc(O)cc3)sc2c1

>  <RECORDED ENDPOINT>
Uterine Wt. (% Inc.)

>  <REPORTED VALUE>
47.1* %

$$$$

Next, consider the following compound.
**Query** Which Uterine Wt. (% Inc.) value is on record for "C#Cc1ccc2c(C(=O)c3ccc(OCCN4CCCCC4)cc3)c(-c3ccc(O)cc3)sc2c1" ?
**Result** 22.5%

* * *

Test system: Uterine Eosinophil Peroxidase (EPO)
TEST SUMMARY: Uterine Eosinophil Peroxidase (EPO) Assay in ovariectomized rats
Assay type: in vivo
Design: unit not given here
STATED CONDITIONS: 0.1 mg/kg PO, Vmaximum, * p<0.05
Each item that follows carries a reported Uterine EPO (Vmax).
Answer with a number only.

The examples below pair each entry with its known result.
>  <MOLECULE>
COC(=O)c1ccc2c(C(=O)c3ccc(OCCN4CCCCC4)cc3)c(-c3ccc(O)cc3)sc2c1.Cl

>  <Uterine EPO (Vmax)>
4.5

$$$$
>  <MOLECULE>
Cl.O=C(O)c1ccc2c(C(=O)c3ccc(OCCN4CCCCC4)cc3)c(-c3ccc(O)cc3)sc2c1

>  <Uterine EPO (Vmax)>
3.3

$$$$
>  <MOLECULE>
CC(=O)c1ccc2c(C(=O)c3ccc(OCCN4CCCCC4)cc3)c(-c3ccc(O)cc3)sc2c1

>  <Uterine EPO (Vmax)>
1.2

$$$$
>  <MOLECULE>
CC(C)COC(=O)c1ccc2c(C(=O)c3ccc(OCCN4CCCCC4)cc3)c(-c3ccc(O)cc3)sc2c1

>  <Uterine EPO (Vmax)>
3.3

$$$$
>  <MOLECULE>
CCCCOC(=O)c1ccc2c(C(=O)c3ccc(OCCN4CCCCC4)cc3)c(-c3ccc(O)cc3)sc2c1

>  <Uterine EPO (Vmax)>
2.4

$$$$

**Query** Form field: Uterine EPO (Vmax) recorded for "C#Cc1ccc2c(C(=O)c3ccc(OCCN4CCCCC4)cc3)c(-c3ccc(O)cc3)sc2c1" with Uterine Eosinophil Peroxidase (EPO) (enter value)
**Result** 3.9
